Below, each entry is listed with its recorded Peptide content in the vial, 0 months.
Test: Stability of lyophilized formulation, peptide content in the vial by HPLC (Example 7)
Format: physicochemical
Conditions: 25 degrees C., humidity 60%, relative to comparative solution peak area = 100%
Form entry: value (%) — number only.

{"columns": ["Seq Text", "Endpoint Unit", "Measurement"],
 "data": [
  ["SYGVLLWEI (T cell epitope) [Peptide 1]", "%", 101.0]
]}

Q: Please give the measured Peptide content in the vial, 0 months for this sequence: EYYELFVNI (T cell epitope) [Peptide 2]
Result: 101.8

Q: Further, for KVYLRVRPLL (T cell epitope) [Peptide 3] ?
Result: 103.7

Q: Next up: IYTWIEDHF (T cell epitope) [Peptide 4]
Result: 101.2

----------
Parameter Peptide content in the vial, 1 month: see the listing below.
Assay: Stability of lyophilized formulation, peptide content in the vial by HPLC (Example 7)
Format: physicochemical
Conditions: 25 degrees C., humidity 60%, relative to comparative solution peak area = 100%
Number in %, nothing else.

{"columns": ["Seq Text", "Endpoint Unit", "Peptide content in the vial, 1 month"],
 "data": [
  ["SYGVLLWEI (T cell epitope) [Peptide 1]", "%", 98.7]
]}

Q: # lookup: Peptide content in the vial, 1 month of EYYELFVNI (T cell epitope) [Peptide 2]
Result: 99.5

Q: Proceed to KVYLRVRPLL (T cell epitope) [Peptide 3]
Result: 103.4

Q: Next sequence up: IYTWIEDHF (T cell epitope) [Peptide 4]
Result: 99.6

----------
Test: Preparation of single peptide injection preparations using arginine solution (Example 2)
Type: physicochemical
Conditions: injection solvent containing arginine
Description: 40 mg of L-arginine was dissolved in 1 ml of an injection solvent to obtain an injection solvent containing arginine. In order to prepare formulations of each peptide that was not dissolved in an injection solvent in Comparative Example 1, Peptides 1, 2, 4, 7, and 10 were separately added to 1 ml of injection solvents containing arginine. In the case of Peptide 1, it was confirmed that the injection preparation could be obtained with the addition of 6 mg of peptide at the maximum. […]
Quantity Measured: pH of injection preparation, Example 2 (Arg)

{"columns": ["Seq Text", "Measurement"],
 "data": [
  ["SYRNEIAYL (T cell epitope) [Peptide 7]", 9.68],
  ["EYYELFVNI (T cell epitope) [Peptide 2]", 9.03],
  ["DYLNEWGSRF (T cell epitope) [Peptide 10]", 9.87]
]}

Turning to the following sequence.
Q: So what does the record say about pH of injection preparation, Example 2 (Arg) for IYTWIEDHF (T cell epitope) [Peptide 4] ?
Result: 8.95

----------
Assay: Preparation of injection preparations using sodium carbonate/arginine solution (Example 3)
Assay type: physicochemical
Conditions: injection solvent containing sodium carbonate and arginine
Examples of sequences with documented pH of injection preparation, Example 3 (Na2CO3/Arg) follow.
Reply briefly: the number, and no unit.

Example entries begin here.
{"columns": ["Seq Text", "Measurement"],
 "data": [
  ["DYLNEWGSRF (T cell epitope) [Peptide 10]", 10.14],
  ["IYTWIEDHF (T cell epitope) [Peptide 4]", 9.69],
  ["SYRNEIAYL (T cell epitope) [Peptide 7]", 9.97]
]}

Q: What value of measured pH of injection preparation, Example 3 (Na2CO3/Arg) is listed for RFVPDGNRI (T cell epitope) [Peptide 6] ?
Result: 10.55

Q: Please answer likewise for EYYELFVNI (T cell epitope) [Peptide 2]
Result: 9.67

Q: And the next one, VYGIRLEHF (T cell epitope) [Peptide 9] ?
Result: 9.84

Q: Param item: RYCNLEGPPI (T cell epitope) [Peptide 5]
Result: 10.20

Q: Do the same for EYCPGGNLP (EYCPGGNLF; T cell epitope) [Peptide 8] please
Result: 9.80

----------
Assay: Stability of lyophilized formulation, peptide content in the vial by HPLC (Example 7)
Assay type: physicochemical
Details: 25 degrees C., humidity 60%, relative to comparative solution peak area = 100%
Quantity Measured: Peptide content in the vial, 3 months (%)
Lab book: enter the figure in %, no units written.

Recorded Peptide content in the vial, 3 months, per entry:
{"columns": ["Seq Text", "Measurement"],
 "data": [
  ["EYYELFVNI (T cell epitope) [Peptide 2]", 101.3],
  ["IYTWIEDHF (T cell epitope) [Peptide 4]", 99.4]
]}

Q: Peptide content in the vial, 3 months lookup needed for SYGVLLWEI (T cell epitope) [Peptide 1] , thanks.
Result: 98.9

Q: Also check KVYLRVRPLL (T cell epitope) [Peptide 3]
Result: 102.7
